- assayed system: APOL1 G1 (Homo sapiens, UniProt O14791, I384M/S342G)
- Sequence (O14791 28-398 S342G/I384M): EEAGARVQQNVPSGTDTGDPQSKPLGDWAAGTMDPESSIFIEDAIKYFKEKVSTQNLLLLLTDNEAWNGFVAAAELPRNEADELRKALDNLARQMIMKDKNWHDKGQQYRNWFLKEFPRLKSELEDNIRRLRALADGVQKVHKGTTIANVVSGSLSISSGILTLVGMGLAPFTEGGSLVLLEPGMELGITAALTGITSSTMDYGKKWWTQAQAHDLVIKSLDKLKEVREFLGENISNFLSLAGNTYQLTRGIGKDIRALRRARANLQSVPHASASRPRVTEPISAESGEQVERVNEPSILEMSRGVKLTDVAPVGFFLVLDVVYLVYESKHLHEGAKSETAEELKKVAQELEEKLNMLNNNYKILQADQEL
- experiment: MultiTox-Fluor Multiplex Cytotoxicity Assay, tet-inducible APOL1 G1 T-REx-HEK293 cells
- Assay type: cell-based
- Parameters: expressed in transfected cells; host or cells: T-REx HEK293, clone G1 DC3.25 (pAAVS1-Puro-APOL1 G1)
- test settings: HEK293, Multi-Tox Assay; APOL1 variant (G0/G1/G2) of the HEK293 cells not given; read-out: Multi-Tox Assay IC90
reported property: IC90

C[C@H]1C[C@@]2(C[C@@H](c3cn(Cc4ccc(OC5CCOCC5)cc4)nn3)N1)OCC(F)(F)c1cc(Cl)sc12 [Compound 308] :: > 500 nM

Qu. Please report the measured IC90 for C[C@H]1C[C@@]2(C[C@@H](c3cn(Cc4ncnc5[nH]ccc45)nn3)N1)OCC(F)(F)c1cc(Cl)sc12 [Compound 350]
Ans. 50 to 500 nM

Qu. Please report the measured IC90 for Cc1nnc(Cn2cc([C@@H]3C[C@]4(C[C@H](C)N3)OC[C@@H](O)c3cc(Cl)sc34)nn2)[nH]1 [Compound 272]
Ans. > 500 nM

Qu. Please report the measured IC90 for C[C@H]1C[C@@]2(C[C@@H](c3cn(CCC(N)=O)nn3)N1)OCC(F)(F)c1cc(Cl)sc12 [Compound 328]
Ans. 50 to 500 nM

* * *

- assayed system: APOL1 G1 (Homo sapiens, UniProt O14791, I384M/S342G)
- experiment: MultiTox-Fluor Multiplex Cytotoxicity Assay, tet-inducible APOL1 G1 T-REx-HEK293 cells
- Format: cell-based
- Set-up: expressed in transfected cells; host or cells: T-REx HEK293, clone G1 DC3.25 (pAAVS1-Puro-APOL1 G1)
- test settings: Multi-Tox Assay; APOL1 variant not given
# Multi-Tox Assay Max Activity (%) per record follows
Quick note: give the figure in %, leave out the unit.

Illustrative cases are given below, each with its answer.
Cc1ccnn1CCn1cc([C@@H]2C[C@]3(C[C@H](C)N2)OCC(F)(F)c2cc(Cl)sc23)nn1 :: 98.0
C[C@H]1C[C@@]2(C[C@@H](c3cnc(N)nc3)N1)OCCc1cc(Cl)sc12 (racemic) :: 99.7
COCCn1cc([C@@H]2C[C@]3(C[C@H](C)N2)OCC(F)(F)c2cc(Cl)sc23)nn1 :: 100.0

Qu. Give measured Multi-Tox Assay Max Activity (%) for CNc1ncc([C@@H]2C[C@]3(C[C@H](C)N2)OCCc2cc(Cl)sc23)cn1 (racemic) (APOL1 G1 (Homo sapiens, UniProt O14791, I384M/S342G)).
Ans. 99.7

Qu. Give measured Multi-Tox Assay Max Activity (%) for C[C@H]1C[C@@]2(C[C@@H](c3cnn(C4CCOCC4)c3)N1)OCCc1cc(Cl)sc12 (racemic) (APOL1 G1 (Homo sapiens, UniProt O14791, I384M/S342G)).
Ans. 99.3

Qu. Give measured Multi-Tox Assay Max Activity (%) for COc1cc(O)cc([C@@H]2C[C@]3(C[C@H](C)N2)OCCc2cc(Cl)sc23)c1 (racemic) (APOL1 G1 (Homo sapiens, UniProt O14791, I384M/S342G)).
Ans. 98.7

Qu. Give measured Multi-Tox Assay Max Activity (%) for C[C@H]1C[C@@]2(C[C@@H](c3cn(CC(=O)N4CCCCC4)nn3)N1)OC[C@@H](O)c1cc(Cl)sc12 (APOL1 G1 (Homo sapiens, UniProt O14791, I384M/S342G)).
Ans. 97.0
